assayed-target: EGFR (A767_dupASV) expressing Ba/F3 stable cell line (Homo sapiens, UniProt P00533, DUP767-769, cells depend on it)
Sequence (P00533 with tags, fused parts or gaps DUP767-769): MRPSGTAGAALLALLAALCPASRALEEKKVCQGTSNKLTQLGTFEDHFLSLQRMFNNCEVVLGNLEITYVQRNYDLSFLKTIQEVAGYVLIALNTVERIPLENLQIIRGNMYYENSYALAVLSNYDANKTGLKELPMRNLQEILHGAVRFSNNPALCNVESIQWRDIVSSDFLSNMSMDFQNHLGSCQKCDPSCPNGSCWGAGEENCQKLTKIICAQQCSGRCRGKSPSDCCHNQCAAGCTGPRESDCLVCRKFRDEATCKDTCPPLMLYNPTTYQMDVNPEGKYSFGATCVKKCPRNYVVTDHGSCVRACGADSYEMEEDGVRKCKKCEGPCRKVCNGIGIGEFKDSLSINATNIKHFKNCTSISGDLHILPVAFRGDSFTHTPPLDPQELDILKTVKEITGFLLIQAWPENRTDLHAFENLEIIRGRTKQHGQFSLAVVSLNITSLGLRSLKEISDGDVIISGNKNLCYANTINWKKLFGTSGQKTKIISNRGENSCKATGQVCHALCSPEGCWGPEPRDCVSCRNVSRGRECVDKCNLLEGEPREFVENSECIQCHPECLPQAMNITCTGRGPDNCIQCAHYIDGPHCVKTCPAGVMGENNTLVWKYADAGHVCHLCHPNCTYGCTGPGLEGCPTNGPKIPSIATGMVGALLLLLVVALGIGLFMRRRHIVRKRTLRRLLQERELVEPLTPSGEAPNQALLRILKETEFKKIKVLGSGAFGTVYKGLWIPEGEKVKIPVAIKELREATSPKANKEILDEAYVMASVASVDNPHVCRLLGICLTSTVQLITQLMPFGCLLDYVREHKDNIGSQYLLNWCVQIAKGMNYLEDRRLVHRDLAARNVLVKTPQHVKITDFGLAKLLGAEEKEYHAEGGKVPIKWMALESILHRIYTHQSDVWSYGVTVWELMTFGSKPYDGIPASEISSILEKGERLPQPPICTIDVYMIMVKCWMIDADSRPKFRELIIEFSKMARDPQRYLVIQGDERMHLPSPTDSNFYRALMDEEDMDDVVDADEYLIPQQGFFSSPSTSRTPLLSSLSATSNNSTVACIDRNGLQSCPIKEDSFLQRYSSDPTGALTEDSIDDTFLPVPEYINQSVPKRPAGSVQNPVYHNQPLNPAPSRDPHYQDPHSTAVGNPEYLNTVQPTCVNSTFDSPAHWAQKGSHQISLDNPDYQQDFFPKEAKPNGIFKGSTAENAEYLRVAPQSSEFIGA
measurement-notes: Cellular proliferation (Alamar Blue) assay, EGFR A767_dupASV Ba/F3
Type: cell-based
condition-summary: 72 hr, read-out: A767 IC50
Structures can show the parent of a compound that is named as a salt.
recorded-endpoint: GI50 (nM)
Please reply with the bare figure in nM and do not write the unit itself.

The following compounds have reported results that may help.
1. C=CC(=O)Nc1ccc(F)c(Nc2nc(Nc3cnn(C)c3)ncc2-c2ccc(-c3ccccc3)cc2)c1
565
2. [2H]C([2H])=CC(=O)Nc1ccc(F)c(Nc2nc(Nc3cnn(C)c3)ncc2-c2ccc(C(F)(F)F)cc2)c1
123

Request: Would you kindly share the measured GI50 for C=CC(=O)Nc1ccc(F)c(Nc2nc(Nc3cc(C)sn3)ncc2-c2ccc(C(F)(F)F)cc2)c1 ?
Result: 1570

Request: Would you kindly share the measured GI50 for C=CC(=O)Nc1ccc(F)c(Nc2nc(Nc3cnn(C)c3)ncc2-c2cccc(CN(C)C)c2)c1 ?
Result: 8410

Request: Would you kindly share the measured GI50 for Cc1cc(Nc2ncc(Cl)c(Nc3cc(NC(=O)/C=C/CN(C)C)ccc3F)n2)sn1 ?
Result: 1990

Request: Would you kindly share the measured GI50 for C=CC(=O)Nc1ccc(F)c(Nc2nc(Nc3cnn(C)c3)ncc2-c2cccc(Br)c2)c1 ?
Result: 227

Request: Would you kindly share the measured GI50 for C=CC(=O)Nc1ccc(F)c(Nc2nc(Nc3cn(C)nc3Cl)ncc2-c2ccc(C(F)(F)F)cc2)c1 [Compound 112, trifluoroacetate] ?
Result: 80

====

assayed-target: EGFR (H773insNPH) expressing Ba/F3 stable cell line (Homo sapiens, UniProt P00533, DUP771-773, cells depend on it)
Sequence (P00533 with tags, fused parts or gaps DUP771-773): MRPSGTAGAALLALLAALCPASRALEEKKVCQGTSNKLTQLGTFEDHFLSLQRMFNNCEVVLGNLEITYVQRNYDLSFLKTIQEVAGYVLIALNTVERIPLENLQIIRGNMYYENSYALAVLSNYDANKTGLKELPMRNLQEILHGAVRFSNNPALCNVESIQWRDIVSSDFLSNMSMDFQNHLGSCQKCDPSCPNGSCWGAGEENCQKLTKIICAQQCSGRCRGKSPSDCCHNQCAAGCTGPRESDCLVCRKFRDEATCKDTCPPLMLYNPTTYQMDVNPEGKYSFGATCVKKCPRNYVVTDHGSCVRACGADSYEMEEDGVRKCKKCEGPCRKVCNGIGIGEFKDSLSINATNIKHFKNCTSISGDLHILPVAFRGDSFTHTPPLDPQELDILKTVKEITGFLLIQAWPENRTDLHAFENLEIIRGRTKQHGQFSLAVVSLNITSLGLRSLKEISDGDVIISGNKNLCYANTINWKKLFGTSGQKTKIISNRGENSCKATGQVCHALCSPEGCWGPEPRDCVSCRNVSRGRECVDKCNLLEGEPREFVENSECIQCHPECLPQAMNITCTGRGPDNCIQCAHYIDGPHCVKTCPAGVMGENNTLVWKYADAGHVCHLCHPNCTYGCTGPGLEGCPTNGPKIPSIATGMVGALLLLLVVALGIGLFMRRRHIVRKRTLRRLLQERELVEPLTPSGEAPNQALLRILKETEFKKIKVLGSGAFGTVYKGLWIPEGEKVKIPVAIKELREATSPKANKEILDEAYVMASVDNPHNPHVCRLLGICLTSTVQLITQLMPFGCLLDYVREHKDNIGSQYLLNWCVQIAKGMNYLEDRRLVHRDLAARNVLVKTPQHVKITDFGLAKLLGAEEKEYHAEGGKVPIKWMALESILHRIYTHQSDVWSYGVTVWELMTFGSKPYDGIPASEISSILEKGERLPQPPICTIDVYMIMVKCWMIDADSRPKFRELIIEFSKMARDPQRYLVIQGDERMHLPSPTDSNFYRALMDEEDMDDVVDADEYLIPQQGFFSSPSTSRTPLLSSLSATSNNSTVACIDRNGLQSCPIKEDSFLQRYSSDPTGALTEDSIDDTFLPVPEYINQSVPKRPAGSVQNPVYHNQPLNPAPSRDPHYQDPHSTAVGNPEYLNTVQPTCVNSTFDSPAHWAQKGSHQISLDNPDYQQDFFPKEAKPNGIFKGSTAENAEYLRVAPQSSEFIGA
measurement-notes: Cellular proliferation (Alamar Blue) assay, EGFR H773insNPH Ba/F3
Format: cell-based
condition-summary: 72 hr, read-out: NPH IC50
Structures can show the parent of a compound that is named as a salt.
recorded-endpoint: GI50 (nM)
Please reply with the bare figure in nM and do not write the unit itself.

The following molecules have reported results that may help.
1) C=CC(=O)Nc1ccc(F)c(Nc2nc(Nc3ccc(OC)nc3)ncc2Cl)c1
4740
2) C=CC(=O)Nc1ccc(F)c(Nc2nc(Nc3cnn(C)c3)ncc2-c2ccc(OC(F)F)cc2)c1
58
3) C=CC(=O)Nc1ccc(F)c(Nc2nc(Nc3cnn(C)c3)ncc2-c2ccc(Br)cc2)c1 [Compound 75, trifluoroacetate]
43
4) C=CC(=O)Nc1cccc(Oc2nc(Nc3cnn(C)c3)ncc2-c2ccc(Cl)nc2)c1
97
5) C=CC(=O)Nc1ccc(F)c(Nc2nc(Nc3cnn(CCN(C)C)c3)ncc2-c2ccc(Br)cc2)c1
107

Now consider a different molecule.
Request: Would you kindly share the measured GI50 for C=CC(=O)Nc1cccc(Oc2nc(Nc3cnn(C)c3)ncc2-c2ccc(C(F)(F)F)cc2)c1 ?
Result: 226

====

assayed-target: EGFR(D770_N771insSVD) expressing Ba/F3 stable cell line (Homo sapiens, UniProt P00533, DUP768-770, cells depend on it)
Sequence (P00533 with tags, fused parts or gaps DUP768-770): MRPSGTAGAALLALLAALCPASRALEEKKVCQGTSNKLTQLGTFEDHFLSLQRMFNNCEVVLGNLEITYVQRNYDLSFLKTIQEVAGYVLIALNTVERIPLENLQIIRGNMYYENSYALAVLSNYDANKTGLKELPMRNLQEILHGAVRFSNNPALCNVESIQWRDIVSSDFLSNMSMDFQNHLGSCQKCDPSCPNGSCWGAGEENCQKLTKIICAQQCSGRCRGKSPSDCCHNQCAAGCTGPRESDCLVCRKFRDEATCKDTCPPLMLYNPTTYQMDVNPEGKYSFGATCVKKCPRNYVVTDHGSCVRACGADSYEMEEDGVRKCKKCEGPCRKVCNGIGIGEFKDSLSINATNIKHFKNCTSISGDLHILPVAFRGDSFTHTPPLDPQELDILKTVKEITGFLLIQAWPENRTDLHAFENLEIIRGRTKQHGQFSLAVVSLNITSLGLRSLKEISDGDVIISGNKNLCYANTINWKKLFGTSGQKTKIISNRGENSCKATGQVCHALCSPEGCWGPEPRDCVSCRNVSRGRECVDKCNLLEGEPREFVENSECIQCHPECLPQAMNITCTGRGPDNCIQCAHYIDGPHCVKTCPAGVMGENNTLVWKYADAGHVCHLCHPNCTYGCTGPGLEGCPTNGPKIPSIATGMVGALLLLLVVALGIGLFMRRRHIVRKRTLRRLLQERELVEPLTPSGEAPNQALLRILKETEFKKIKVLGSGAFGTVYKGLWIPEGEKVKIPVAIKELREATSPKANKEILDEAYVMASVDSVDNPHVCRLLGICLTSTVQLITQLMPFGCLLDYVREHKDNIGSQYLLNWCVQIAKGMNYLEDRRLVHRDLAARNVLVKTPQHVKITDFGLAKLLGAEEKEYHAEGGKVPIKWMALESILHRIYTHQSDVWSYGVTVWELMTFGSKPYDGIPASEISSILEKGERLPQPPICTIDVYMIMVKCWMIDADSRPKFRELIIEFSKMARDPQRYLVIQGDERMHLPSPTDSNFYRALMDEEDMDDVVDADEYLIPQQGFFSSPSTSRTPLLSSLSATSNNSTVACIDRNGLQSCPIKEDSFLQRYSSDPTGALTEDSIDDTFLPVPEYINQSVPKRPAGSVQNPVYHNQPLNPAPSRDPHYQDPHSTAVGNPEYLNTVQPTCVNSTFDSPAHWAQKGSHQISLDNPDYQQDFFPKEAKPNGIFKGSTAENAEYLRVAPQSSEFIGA
measurement-notes: Cellular proliferation (Alamar Blue) assay, EGFR D770_N771insSVD Ba/F3
Format: cell-based
condition-summary: 72 hr, read-out: D770 IC50
recorded-endpoint: GI50 (µM)
Please reply with the bare figure in µM and do not write the unit itself.

The following compounds have reported results that may help.
1. C=CC(=O)Nc1ccc(F)c(Nc2nc(Nc3ccc(OC)nc3)ncc2Cl)c1
7.95
2. COc1cc(N2CCCCC2)ccc1Nc1ncc(C(=O)N(C)c2ccccc2)c(Nc2cccc(NC(=O)/C=C/CN(C)C)c2)n1
3.26

Request: Would you kindly share the measured GI50 for C=CS(=O)(=O)Nc1ccc(F)c(Nc2nc(Nc3cnn(C)c3)ncc2-c2ccc(C(F)(F)F)cc2)c1 ?
Result: 8.45

Source: patent US12686673B2
